experiment: Dynamic light scattering: LNP particle size and PDI; assay type: physicochemical; conditions: LNP, Formulation F1, N/P 6
Observed property: Size (nm) N/P:6

Molecule | Output unit | Number
CCCCC/C=C\CCOC(=O)CCCCCCC(=O)OCC(COC(=O)CCCCCCC(=O)OCC/C=C\CCCCC)(COC(=O)CCC(CCCCCC)OC(=O)NCCN1CCCC1)COC(=O)CCC(OCCCCCCCC)OCCCCCCCC (stereo not drawn) [Compound 12] | nm | 81
CCCCC/C=C\CCOC(=O)CCCCCC(=O)OCC(COC(=O)CCCCCCOC(=O)C(CCCC)CCCCCC)(COC(=O)CCCCCC(=O)OCC/C=C\CCCCC)COC(=O)CCC(CCCCCC)OC(=O)NCCN1CCCC1 (stereo not drawn) [Compound 16] | nm | 73
CCCCC/C=C\C/C=C\CCCCCCCC(=O)OCC(COC(=O)CCCCCCC/C=C\C/C=C\CCCCC)(COC(=O)CCCCCCC/C=C\C/C=C\CCCCC)COC(=O)CCC(CCCCCC)OC(=O)NCCN1CCCC1 (stereo not drawn) [Compound 2] | nm | 75
CCCCCCCC/C=C\CCCCCCCC(=O)OCC(COC(=O)CCCCCCC/C=C\CCCCCCCC)(COC(=O)CCC(CCCCCC)OC(=O)NCCN1CCCC1)COC(=O)CC12CC3CC(CC(C3)C1)C2 (stereo not drawn) [Compound 3] | nm | 74
CCCCC/C=C\CCOC(=O)CCCCCCC(=O)OCC(COC(=O)CCCCCCC(=O)OCC/C=C\CCCCC)(COC(=O)CCCCCCC(=O)OCC/C=C\CCCCC)COC(=O)CCC(CCCCCC)OC(=O)NCCN1CCCC1 (stereo not drawn) [Compound 10] | nm | 78
CCCCC/C=C\CCOC(=O)CCCCCC(=O)OCC(COC(=O)CCCCCC(=O)OCC/C=C\CCCCC)(COC(=O)CCCCCC(=O)OCC/C=C\CCCCC)COC(=O)CCC(CCCCCC)OC(=O)NCCN1CCCC1 (stereo not drawn) [Compound 7] | nm | 75
CCCCC/C=C\CCOC(=O)CCCCC(=O)OCC(COC(=O)CCCCC(=O)OCC/C=C\CCCCC)(COC(=O)CCC(CCCCCC)OC(=O)NCCN1CCCC1)COC(=O)CC12CC3CC(CC(C3)C1)C2 (stereo not drawn) [Compound 14] | nm | 78
CCCCC/C=C\C/C=C\CCCCCCCC(=O)OCC(COC(=O)CCCCCCC/C=C\C/C=C\CCCCC)(COC(=O)CCC(CCCCCC)OC(=O)NCCN1CCCC1)COC(=O)CCC(OCCCCCCCC)OCCCCCCCC (stereo not drawn) [Compound 6] | nm | 69
CCCCCCC(CCC(=O)OCC(COC(=O)CCCCCCOC(=O)C(CCCC)CCCCCC)(COC(=O)CCCCCCOC(=O)C(CCCC)CCCCCC)COC(=O)CCCCCCOC(=O)C(CCCC)CCCCCC)OC(=O)NCCN1CCCC1 (stereo not drawn) [Compound 18] | nm | 67

====

test system: mouse organs; experiment: In vivo activity screening in mice: organ mean total flux (p/s) of luciferase activity after injection of F2 LNP pools (Table 6, FIG. 7A-7C); settings: Mouse 1, dose 0.3 mg/kg, luciferase mRNA
Marks after values point to notes of the source that are not given here.
Organ Mean Total Flux Spleen for assorted compounds

Examples with answers:
Compound | Test target | Result
CCCCCCCC/C=C\CCCCCCCC(=O)OCC(COC(=O)CCCCCCC/C=C\CCCCCCCC)(COC(=O)CCC(CCCCCC)OC(=O)NCCN1CCCC1)COC(=O)CC12CC3CC(CC(C3)C1)C2 (stereo not shown) | mouse organs | 1.4 p/s (×10^6)
CCCCC/C=C\CCOC(=O)CCCCCCC(=O)OCC(COC(=O)CCCCCCC(=O)OCC/C=C\CCCCC)(COC(=O)CCCCCCC(=O)OCC/C=C\CCCCC)COC(=O)CCC(CCCCCC)OC(=O)NCCN1CCCC1 (stereo not shown) | mouse organs | 12.3 p/s (×10^6)
CCCCC/C=C\CCOC(=O)CCCCCCC(=O)OCC(COC(=O)CCCCCCC(=O)OCC/C=C\CCCCC)(COC(=O)CCC(CCCCCC)OC(=O)NCCN1CCCC1)COC(=O)CC12CC3CC(CC(C3)C1)C2 (stereo not shown) | mouse organs | 32.3 p/s (×10^6)
CCCCCCCC/C=C\CCCCCCCC(=O)OCC(COC(=O)CCCCCCC/C=C\CCCCCCCC)(COC(=O)CCCCCCC/C=C\CCCCCCCC)COC(=O)CCC(CCCCCC)OC(=O)NCCN1CCCC1 (stereo not shown) | mouse organs | 1.7 p/s (×10^6)
CCCCCCCC/C=C\CCCCCCCC(=O)OCC(COC(=O)CCCCCCC/C=C\CCCCCCCC)(COC(=O)CCC(CCCCCC)OC(=O)NCCN1CCCC1)COC(=O)CCC(OCCCCCCCC)OCCCCCCCC (stereo not shown) | mouse organs | 17.6 p/s (×10^6)

Task item: Given the compound CCCCC/C=C\CCOC(=O)CCCCCC(=O)OCC(COC(=O)CCCCCC(=O)OCC/C=C\CCCCC)(COC(=O)CCC(CCCCCC)OC(=O)NCCN1CCCC1)COC(=O)CCC(OCCCCCCCC)OCCCCCCCC (stereo not shown) , what is its reported Organ Mean Total Flux Spleen?
Reply: 32.5 p/s (×10^6)

Task item: Given the compound CCCCC/C=C\CCOC(=O)CCCCCC(=O)OCC(COC(=O)CCCCCC(=O)OCC/C=C\CCCCC)(COC(=O)CCCCCC(=O)OCC/C=C\CCCCC)COC(=O)CCC(CCCCCC)OC(=O)NCCN1CCCC1 (stereo not shown) , what is its reported Organ Mean Total Flux Spleen?
Reply: 29.0 p/s (×10^6)

Task item: Given the compound CCCCC/C=C\C/C=C\CCCCCCCCC(CCCCCCCC/C=C\C/C=C\CCCCC)OC(=O)CCCN(C)C [MC3, reference compound] , what is its reported Organ Mean Total Flux Spleen?
Reply: 22.3 p/s (×10^6)

Task item: Given the compound CCCCC/C=C\CCOC(=O)CCCCCC(=O)OCC(COC(=O)CCCCCC(=O)OCC/C=C\CCCCC)(COC(=O)CCC(CCCCCC)OC(=O)NCCN1CCCC1)COC(=O)CC12CC3CC(CC(C3)C1)C2 (stereo not shown) , what is its reported Organ Mean Total Flux Spleen?
Reply: 10.7 p/s (×10^6)

Task item: Given the compound CCCCC/C=C\C/C=C\CCCCCCCC(=O)OCC(COC(=O)CCCCCCC/C=C\C/C=C\CCCCC)(COC(=O)CCC(CCCCCC)OC(=O)NCCN1CCCC1)COC(=O)CCC(OCCCCCCCC)OCCCCCCCC (stereo not shown) , what is its reported Organ Mean Total Flux Spleen?
Reply: 14.1 p/s (×10^6)

Task item: Given the compound CCCCC/C=C\CCOC(=O)CCCCC(=O)OCC(COC(=O)CCCCC(=O)OCC/C=C\CCCCC)(COC(=O)CCC(CCCCCC)OC(=O)NCCN1CCCC1)COC(=O)CC12CC3CC(CC(C3)C1)C2 (stereo not shown) , what is its reported Organ Mean Total Flux Spleen?
Reply: 31.5 p/s (×10^6)

Task item: Given the compound CCCCC/C=C\CCOC(=O)CCCCCCC(=O)OCC(COC(=O)CCCCCCC(=O)OCC/C=C\CCCCC)(COC(=O)CCC(CCCCCC)OC(=O)NCCN1CCCC1)COC(=O)CCC(OCCCCCCCC)OCCCCCCCC (stereo not shown) , what is its reported Organ Mean Total Flux Spleen?
Reply: 0.7 p/s (×10^6)

Task item: Given the compound CCCCC/C=C\C/C=C\CCCCCCCC(=O)OCC(COC(=O)CCCCCCC/C=C\C/C=C\CCCCC)(COC(=O)CCCCCCC/C=C\C/C=C\CCCCC)COC(=O)CCC(CCCCCC)OC(=O)NCCN1CCCC1 (stereo not shown) , what is its reported Organ Mean Total Flux Spleen?
Reply: 15.6 p/s (×10^6)

====

Assay: Dynamic light scattering: LNP particle size and PDI
Assay type: physicochemical
Conditions: LNP, Formulation F2, N/P 6
Experimental: Lipids and active ingredients (e.g., RNA, DNA, etc.) were assembled into LNPs using microfluidic mixing. […] LNPs were diluted with PBS pH 7.4 to predetermined dilution ranges based on the process step and LNP concentration. Following mixing, the particle size and PDI were measured by a dynamic light scattering instrument.
Observed property: PDI N/P:6

Examples with answers:
Molecule | Observed property | Number
CCCCCCCC/C=C\CCCCCCCC(=O)OCC(COC(=O)CCCCCCC/C=C\CCCCCCCC)(COC(=O)CCCCCCC/C=C\CCCCCCCC)COC(=O)CCC(CCCCCC)OC(=O)NCCN1CCCC1 (stereo not shown) | PDI N/P:6 | 0.069
CCCCC/C=C\CCOC(=O)CCCCC(=O)OCC(COC(=O)CCCCC(=O)OCC/C=C\CCCCC)(COC(=O)CCC(CCCCCC)OC(=O)NCCN1CCCC1)COC(=O)CC12CC3CC(CC(C3)C1)C2 (stereo not shown) | PDI N/P:6 | 0.07
CCCCC/C=C\CCOC(=O)CCCCCC(=O)OCC(COC(=O)CCCCCC(=O)OCC/C=C\CCCCC)(COC(=O)CCCCCC(=O)OCC/C=C\CCCCC)COC(=O)CCC(CCCCCC)OC(=O)NCCN1CCCC1 (stereo not shown) | PDI N/P:6 | 0.11
CCCCCCCC/C=C\CCCCCCCC(=O)OCC(COC(=O)CCCCCCC/C=C\CCCCCCCC)(COC(=O)CCC(CCCCCC)OC(=O)NCCN1CCCC1)COC(=O)CC12CC3CC(CC(C3)C1)C2 (stereo not shown) | PDI N/P:6 | 0.01
CCCCC/C=C\CCOC(=O)CCCCCC(=O)OCC(COC(=O)CCCCCCOC(=O)C(CCCC)CCCCCC)(COC(=O)CCCCCC(=O)OCC/C=C\CCCCC)COC(=O)CCC(CCCCCC)OC(=O)NCCN1CCCC1 (stereo not shown) | PDI N/P:6 | 0.07
CCCCC/C=C\C/C=C\CCCCCCCC(=O)OCC(COC(=O)CCCCCCC/C=C\C/C=C\CCCCC)(COC(=O)CCC(CCCCCC)OC(=O)NCCN1CCCC1)COC(=O)CCC(OCCCCCCCC)OCCCCCCCC (stereo not shown) | PDI N/P:6 | 0.012
CCCCCCC(CCC(=O)OCC(COC(=O)CCCCCCOC(=O)C(CCCC)CCCCCC)(COC(=O)CCCCCCOC(=O)C(CCCC)CCCCCC)COC(=O)CCCCCCOC(=O)C(CCCC)CCCCCC)OC(=O)NCCN1CCCC1 (stereo not shown) | PDI N/P:6 | 0.02
CCCCCCCCOC(CCC(=O)OCC(COC(=O)CCCCCCOC(=O)C(CCCC)CCCCCC)(COC(=O)CCC(CCCCCC)OC(=O)NCCN1CCCC1)COC(=O)CCC(OCCCCCCCC)OCCCCCCCC)OCCCCCCCC (stereo not shown) | PDI N/P:6 | 0.03

(a) CCCCC/C=C\CCOC(=O)CCCCCCC(=O)OCC(COC(=O)CCCCCCC(=O)OCC/C=C\CCCCC)(COC(=O)CCCCCCC(=O)OCC/C=C\CCCCC)COC(=O)CCC(CCCCCC)OC(=O)NCCN1CCCC1 (stereo not shown)
(b) CCCCC/C=C\C/C=C\CCCCCCCC(=O)OCC(COC(=O)CCCCCCC/C=C\C/C=C\CCCCC)(COC(=O)CCC(CCCCCC)OC(=O)NCCN1CCCC1)COC(=O)CC12CC3CC(CC(C3)C1)C2 (stereo not shown)
Task item: Select the item whose PDI N/P:6 value is smaller, choosing between a and b . Answer = label.
Reply: b

(P) CCCCC/C=C\CCOC(=O)CCCCCCC(=O)OCC(COC(=O)CCCCCCC(=O)OCC/C=C\CCCCC)(COC(=O)CCC(CCCCCC)OC(=O)NCCN1CCCC1)COC(=O)CC12CC3CC(CC(C3)C1)C2 (stereo not shown)
(Q) CCCCC/C=C\CCOC(=O)CCCCCC(=O)OCC(COC(=O)CCCCCC(=O)OCC/C=C\CCCCC)(COC(=O)CCC(CCCCCC)OC(=O)NCCN1CCCC1)COC(=O)CC12CC3CC(CC(C3)C1)C2 (stereo not shown)
(R) CCCCC/C=C\CCOC(=O)CCCCCC(=O)OCC(COC(=O)CCCCCC(=O)OCC/C=C\CCCCC)(COC(=O)CCC(CCCCCC)OC(=O)NCCN1CCCC1)COC(=O)CCC(OCCCCCCCC)OCCCCCCCC (stereo not shown)
Task item: Ascending by PDI N/P:6, please. Please reply with the labels ordered as requested. Many thanks.
Reply: R, Q, P

(a) CCCCCCCC/C=C\CCCCCCCC(=O)OCC(COC(=O)CCCCCCC/C=C\CCCCCCCC)(COC(=O)CCC(CCCCCC)OC(=O)NCCN1CCCC1)COC(=O)CCC(OCCCCCCCC)OCCCCCCCC (stereo not shown)
(b) CCCCC/C=C\C/C=C\CCCCCCCC(=O)OCC(COC(=O)CCCCCCC/C=C\C/C=C\CCCCC)(COC(=O)CCCCCCC/C=C\C/C=C\CCCCC)COC(=O)CCC(CCCCCC)OC(=O)NCCN1CCCC1 (stereo not shown)
Task item: Which value of PDI N/P:6 is numerically greater: that of a or that of b ? Answer = label.
Reply: a
